test: Comparison with 1,4-butanediol-β-aminocrotonate and methyl-β-aminocrotonate, rigid co-polymer, 185° C.; settings: 0.5 part, 6 min
Let's look at some molecules and their measured coloration, GARDNER scale.

Solved cases (3 shown):
CC1=C(C(=O)OCCOc2ccccc2)CC(C(=O)OCCOc2ccccc2)=C(C)N1 [Compound 28] : 7
COC(=O)/C=C(/C)N [Methyl-β-aminocrotonate, methyl-β-aminocrotonate, reference compound] : 12
CC(N)=CC(=O)OCCCCOC(=O)C=C(C)N [1,4-butanediol-β-aminocrotonate, reference compound] : 10

Kindly consider the entry below.
Just so you know, measured coloration, GARDNER scale for CC1=C(C(=O)OCc2ccccc2)CC(C(=O)OCc2ccccc2)=C(C)N1 [Compound 21] came out at 6
